Test system: uptake of dopamine into striatal synaptosomes
assayComment: In vitro inhibition of dopamine uptake (14C-dopamine, rat striatal synaptosomes)
Type: biochemical, rat (Sprague-Dawley)
setupConditions: Ex.1; 0.17 μM 14C-dopamine, 37° C.; read-out: IC50
measuredMetric: pIC50
// returns pIC50 (minus log10 of molar concentration), number only

So what does the record say about pIC50 for CC(C)CC(N(C)C)C1(c2ccc(Cl)cc2)CCC1.Cl.O (stereo not shown) [hydrochloride monohydrate] ?
5.48
